This listing pairs binders with measured fB Cleavage EC50.
target: Human Factor B (human) (UniProt P00751); assay: cell-based or functional assay
Sequence (P00751 26-764 limits assumed): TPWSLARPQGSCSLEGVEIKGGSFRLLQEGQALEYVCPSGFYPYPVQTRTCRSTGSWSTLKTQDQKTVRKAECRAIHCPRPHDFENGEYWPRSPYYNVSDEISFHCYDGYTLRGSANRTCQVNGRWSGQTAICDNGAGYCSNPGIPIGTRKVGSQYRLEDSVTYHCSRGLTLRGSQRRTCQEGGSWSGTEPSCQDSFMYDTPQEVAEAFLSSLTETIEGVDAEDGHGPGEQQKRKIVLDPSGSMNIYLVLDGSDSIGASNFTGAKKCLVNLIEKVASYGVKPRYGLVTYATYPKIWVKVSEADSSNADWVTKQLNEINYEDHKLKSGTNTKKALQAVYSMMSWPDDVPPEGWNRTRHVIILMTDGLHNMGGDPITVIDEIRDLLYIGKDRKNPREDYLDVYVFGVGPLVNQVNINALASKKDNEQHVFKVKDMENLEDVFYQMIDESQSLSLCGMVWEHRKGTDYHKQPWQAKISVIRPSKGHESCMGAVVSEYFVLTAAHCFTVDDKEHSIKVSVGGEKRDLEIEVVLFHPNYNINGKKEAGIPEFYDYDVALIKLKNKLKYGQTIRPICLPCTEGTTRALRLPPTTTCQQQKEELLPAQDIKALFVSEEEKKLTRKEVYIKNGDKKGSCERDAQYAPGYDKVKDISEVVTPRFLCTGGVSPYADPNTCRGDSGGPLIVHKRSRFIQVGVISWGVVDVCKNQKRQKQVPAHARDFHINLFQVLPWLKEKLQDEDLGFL
Provide only the numeric value, understood in nM.

>  <BINDER>
chymase C22S/P38Q/K40M/F41R/L99W/V138I/F173M/D175H/A190S/V213A/S218T/A226R (enzyme) IIGGTESKPHSRPYMAYLEIVTSNGQSMRCGGFLIRRNFVLTAAHCAGRSITVTLGAHNITEEEDTWQKLEVIKQFRHPKYNTSTWHHDIMLLKLKEKASLTLAVGTLPFPSQFNFVPPGRMCRIAGWGRTGVLKPGSDTLQEVKLRLMDPQACSHMRHFDHNLQLCVGNPRKTKSSFKGDSGGPLLCAGVAQGIASYGRTDAKPPRVFTRISHYRPWINQILQAN

>  <fB Cleavage EC50, nM>
414

$$$$

Please give measured fB Cleavage EC50 of the following entry: chymase C22S/P38Q/K40L/F41R/V138I/F173L/D175R/A190S/V213A/S218V/A226R (enzyme) IIGGTESKPHSRPYMAYLEIVTSNGQSLRCGGFLIRRNFVLTAAHCAGRSITVTLGAHNITEEEDTWQKLEVIKQFRHPKYNTSTLHHDIMLLKLKEKASLTLAVGTLPFPSQFNFVPPGRMCRIAGWGRTGVLKPGSDTLQEVKLRLMDPQACSHLRRFDHNLQLCVGNPRKTKSSFKGDSGGPLLCAGVAQGIASYGRVDAKPPRVFTRISHYRPWINQILQAN
113
